- System: sugar beet
- measurement_description: Test B pre/postemergence sugar beet
- Type: in vivo, Beta vulgaris
- condition: Rate 500 g/ha, Postemergence; scale 0 to 10, 0 no effect, 10 complete control
endpoint_label: Sugarbeets plant response rating

INSERT INTO assay_data (compound, experimental_target, endpoint_label, data_value) VALUES
  ('CC(C)N(C(=O)n1oc(=O)n(CC2(C)COC2)c1=O)c1ccc(F)cc1 [Compound 226]', 'sugar beet', 'Sugarbeets plant response rating', 2),
  ('CCN(C(=O)n1oc(=O)n(-c2c(C)cc(C)cc2C)c1=O)C1CCCCC1 [Compound 63]', 'sugar beet', 'Sugarbeets plant response rating', 3),
  ('CCc1noc(CC)c1-n1c(=O)on(C(=O)N(c2ccc(F)cc2)C(C)C)c1=O [Compound 102]', 'sugar beet', 'Sugarbeets plant response rating', 0),
  ('Cc1ccccc1-n1c(=O)on(C(=O)N(c2ccc(C#N)cc2)C(C)C)c1=O [Compound 51]', 'sugar beet', 'Sugarbeets plant response rating', 0),
  ('Cc1ccccc1-n1c(=O)on(C(=O)N(c2ccc(F)cc2)C(C)C2CC2)c1=O (stereo not drawn) [Compound 240]', 'sugar beet', 'Sugarbeets plant response rating', 3),
  ('Cc1ccccc1Cn1c(=O)on(C(=O)N(c2ccc(F)cc2)C(C)C)c1=O [Compound 88]', 'sugar beet', 'Sugarbeets plant response rating', 7),
  ('CCCn1c(=O)on(C(=O)N(c2ccc(Cl)cc2)C(C)C)c1=O [Compound 119]', 'sugar beet', 'Sugarbeets plant response rating', 4),
  ('CC(C)N(C(=O)n1oc(=O)n(C(C)C(=O)c2ccccc2)c1=O)c1ccc(F)cc1 (stereo not drawn) [Compound 260]', 'sugar beet', 'Sugarbeets plant response rating', 3),
  ('C=CCn1c(=O)on(C(=O)N(c2ccc(F)cc2)C(C)C(=O)OCC)c1=O (stereo not drawn) [Compound 279]', 'sugar beet', 'Sugarbeets plant response rating', 0);

----------
- System: morningglory
- measurement_description: Test B pre/postemergence morningglory
- Format: in vivo, Ipomoea hederacea
- condition: Postemergence, Rate 125 g/ha; scale of 0 to 10 where 0 is no effect and 10 is complete control
endpoint_label: Morningglory plant response rating

INSERT INTO measurements (molecule, data_value) VALUES
  ('CC(C)N(C(=O)n1oc(=O)n(C2CCCCC2)c1=O)c1ccc(Cl)cc1', 5),
  ('CC(C)N(C(=O)n1oc(=O)n(CCCC#N)c1=O)c1ccc(F)cc1', 0),
  ('CCCn1c(=O)on(C(=O)N(c2ccc(Cl)cc2)C(C)C)c1=O', 7),
  ('COC(=O)C(c1ccccc1)n1c(=O)on(C(=O)N(c2ccc(F)cc2)C(C)C)c1=O (centres unmarked)', 2),
  ('C#CC(C)n1c(=O)on(C(=O)N(c2ccc(F)cc2)C(C)C)c1=O (centres unmarked)', 7);

----------
Items are presented alongside their recorded Crabgrass plant response rating (0 to 10 scale).
- Test system: crabgrass
- measurement_description: Test B pre/postemergence crabgrass
- Format: in vivo, Digitaria sanguinalis
- condition: Preemergence, Rate 125 g/ha; 0 is no effect, 10 is complete control
endpoint_label: Crabgrass plant response rating (0 to 10 scale)

INSERT INTO results (molecule, data_value) VALUES
  ('Cc1cnn(C)c1-n1c(=O)on(C(=O)N(c2ccc(F)cc2)C(C)C)c1=O', 0),
  ('Cc1nc(C)c(Cn2c(=O)on(C(=O)N(c3ccc(Cl)cc3)C(C)C)c2=O)s1', 3),
  ('CC(C)Cn1c(=O)on(C(=O)N(c2ccc(F)cc2)C(C)C)c1=O', 8),
  ('CC(C)N(C(=O)n1oc(=O)n(Cc2ccco2)c1=O)c1ccc(F)cc1', 0),
  ('CC1CCCCC1n1c(=O)on(C(=O)N(c2ccc(F)cc2F)C(C)C)c1=O (centres unmarked)', 8);
